Test system: Mycobacterium intracellulare
Method Summary: Antibacterial activity against Mycobacterium intracellular ATCC 23068 at 20 ug/ml by CLSI method
Format: functional, organism-based
Readout Type: IC50

Molecule: COc1cc(NC(C)CCCNC(=O)C[C@H](N)C(=O)NCCCC(C)Nc2cc(OC)cc3ccc(C(C)(C)C)nc23)c2nc(C(C)(C)C)ccc2c1.Cl (stereo partly drawn)
Observed Measurement: Not Active
//
Molecule: COc1cc(NC(C)CCCNC(=O)NC(CCCNC(=N)N)C(=O)NCCCC(C)Nc2cc(OC)cc3cccnc23)c2ncccc2c1.Cl (single isomer, unassigned; 39)
Observed Measurement: Not Active
//
Molecule: COc1cc(NC(C)CCCNC(=O)N[C@@H](CCCCN)C(=O)NCCCC(C)Nc2cc(OC)cc3ccc(C(C)(C)C)nc23)c2nc(C(C)(C)C)ccc2c1.Cl (stereo partly drawn)
Observed Measurement: Not Active

###

Method Summary: Hematotoxicity against RBC assessed as formation of methemoglobin at 20 ug/ml relative to control
Format: cell-based
Condition Context: erythrocyte
Checkbox rule: Methemoglobin formation lower than 3% = class 1; Methemoglobin formation not lower than 3% = class 0.

Compound: COc1cc(NC(C)CCCNC(=O)CC[C@H](N)C(=O)NCCCC(C)Nc2cc(OC)cc3ccc(C(C)(C)C)nc23)c2nc(C(C)(C)C)ccc2c1.Cl (some centres not stated)
Assigned Category: class 0
//
Compound: COc1cc(NC(C)CCCNC(=O)NC(CCCCN)C(=O)NCCCC(C)Nc2cc(OC)cc3ccc(C(C)(C)C)nc23)c2nc(C(C)(C)C)ccc2c1.Cl (single isomer, unassigned)
Assigned Category: class 1
//
Compound: COc1cc(NC(C)CCCNC(=O)c2ccncc2C(=O)NCCCC(C)Nc2cc(OC)cc3cccnc23)c2ncccc2c1.Cl (configuration not stated)
Assigned Category: class 0
//
Compound: COc1cc(NC(C)CCCNC(=O)c2ccncc2C(=O)NCCCC(C)Nc2cc(OC)cc3ccc(C(C)(C)C)nc23)c2nc(C(C)(C)C)ccc2c1.Cl (configuration not stated)
Assigned Category: class 1
//
Compound: COc1cc(NC(C)CCCNC(=O)NC(CCCN)C(=O)NCCCC(C)Nc2cc(OC)cc3cccnc23)c2ncccc2c1.Cl (single isomer, unassigned; 37)
Assigned Category: class 0
//
Compound: COc1cc(NC(C)CCCNC(=S)NCCCC(C)Nc2cc(OC)cc3cccnc23)c2ncccc2c1.Cl.Cl (configuration not stated)
Assigned Category: class 0
//
Compound: COc1cc(NC(C)CCCNC(=O)C[C@@H](N)C(=O)NCCCC(C)Nc2cc(OC)cc3cccnc23)c2ncccc2c1.Cl (some centres not stated)
Assigned Category: class 0

###

IC50 by entry:
Tested on: Cryptococcus neoformans
Method Summary: Antifungal activity against Cryptococcus neoformans ATCC 90113
Assay type: functional, organism-based

Compound: CCCCCOc1c(OC)cc(NC(C)CCCNC(=S)NCCCC(C)Nc2cc(OC)c(OCCCCC)c3c(CC)ccnc23)c2nccc(CC)c12.Cl.Cl (centres undefined)
IC50 (µg/mL): 10

Compound: COc1cc(NC(C)CCCNCCNCCNCCCC(C)Nc2cc(OC)cc3cccnc23)c2ncccc2c1.Cl.Cl (centres undefined)
IC50 (µg/mL): 15

Compound: COc1cc(NC(C)CCCNC(=O)CC[C@H](N)C(=O)NCCCC(C)Nc2cc(OC)cc3cccnc23)c2ncccc2c1.Cl (some centres undefined)
IC50 (µg/mL): 15

Compound: COc1cc(NC(C)CCCNC(=O)N[C@H](CCCCN)C(=O)NCCCC(C)Nc2cc(OC)cc3cccnc23)c2ncccc2c1.Cl (some centres undefined)
IC50 (µg/mL): 10
